# Tested on: velvetleaf (Abutilon theophrasti)
# Experiment: Test B preemergence
# Assay type: in vivo
# Measurement Context: Preemergence, Rate 500 g/ha; scale 0 to 100, 0 no effect, 100 complete control
Measure Name: Plant response rating, Velvetleaf
One number for each entry.

Examples with their reported Plant response rating, Velvetleaf follow.
Cc1ccc(N2CCC(n3ccc(C(C)(C)C)n3)C2=O)cc1OCCCl (stereo not shown)	70
CCCCC(CCCC)c1ccn(C2OCN(c3cccc(C(F)(F)F)c3)C2=O)n1 (stereo not shown)	0

Parameter requested: Plant response rating, Velvetleaf. Apply to each item below.
1. CC(C)Oc1cccc(N2CCC(n3ccc(C(C)C)n3)C2=O)c1 (stereo not shown)
2. CCC(C)c1ccn(C2CCN(c3ccc(Cl)c(OC)c3)C2=O)n1 (stereo not shown)

**Result**
[0, 70]
